- Test system: UACC-257 melanoma
- experimentalDetails: NCI-60 one-dose screen, 48 h
- studyConditions: 10 µM unless noted
- Procedure: Cells are grown in 96 well plates and exposed to the test compound for 48 hours. Compounds are tested at a single concentration, which is 10^-5 M for most compounds. The reported endpoint is percent growth (GI% or GIPRCNT), where numbers from 0 - 100% represent growth inhibition, and numbers from -100% - 0 represent cell death. For example, a value of 40 represents 60% growth inhibition. A value of 0 means no net growth occurred over the course of the experiment. […]
This is part of a sample that, as a whole, favours compounds with a hit. Of some 83,000 tested, about 20% had one in any assay. The source made the active and inactive calls. Rule for the calls: active = growth percent below 10; inactive = the rest.
Your response should consist of one outcome taken from TRUE for active, FALSE for inactive

So what was the verdict on `OCc1cccc(F)c1` in this test?
FALSE

So what was the verdict on CS/C(=C\c1ccc(C(=O)c2ccc(C)cc2)n1C)S(C)=O (configuration not stated) in this test?
FALSE

So what was the verdict on `OCCS` in this test?
FALSE

So what was the verdict on CCC(C)NC(=O)c1ccccc1C (configuration not stated) in this test?
FALSE

So what was the verdict on `Cc1cc(-c2ccc(N=Nc3c(C)nn(-c4ccc(S(=O)(=O)O)cc4)c3O)c(C)c2)ccc1N=Nc1ccc(O)c(C(=O)O)c1` in this test?
FALSE

So what was the verdict on `CCCC(=O)Oc1ccc2ccccc2c1` in this test?
FALSE

So what was the verdict on `Cc1ccc([N+](=O)[O-])cc1Br` in this test?
FALSE

So what was the verdict on `CC(C)(C)OC(=O)NCCc1ccc(N)cc1` in this test?
FALSE

So what was the verdict on `CC(=O)Oc1cc(C)c(OC(C)=O)c(C)c1C` in this test?
FALSE

So what was the verdict on `O=C(c1ccncc1)c1c(Cc2ccccc2)ccc2ccccc12` in this test?
TRUE

So what was the verdict on `c1ccc2c[n+](Cc3ccc4ccccc4n3)ccc2c1` in this test?
FALSE

So what was the verdict on `COc1cc(Cl)ccc1C` in this test?
FALSE

So what was the verdict on O=C(N=C1C(=O)C2(CCCCC2)C2(N=C(c3ccccc3)OC2=O)C12CCCCC2)c1ccccc1 (configuration not stated) in this test?
FALSE

So what was the verdict on `COc1ccc2nccc(Cl)c2c1` in this test?
FALSE

So what was the verdict on `CCOCCC(=O)O` in this test?
FALSE

So what was the verdict on `CCC/C(=N/NC(N)=O)c1ccco1` in this test?
FALSE

So what was the verdict on `C=CCN1C(=O)c2ccccc2C1=O` in this test?
FALSE

So what was the verdict on `CC(=O)C[n+]1ccccc1Sc1ccc(Cl)cc1` in this test?
FALSE

So what was the verdict on CN(C)CC(CN(C)C)C(O)c1ccccc1 (configuration not stated) in this test?
FALSE

So what was the verdict on `Cc1cccc(Cl)c1N` in this test?
FALSE

So what was the verdict on CCN(CC)CCO/N=C1\CC(c2ccc(OC)c(OC)c2)Oc2ccccc21 (configuration not stated) in this test?
FALSE

So what was the verdict on `CCNC1=CC(=O)c2ncccc2C1=O` in this test?
TRUE

---

Could you please report measured growth for the items listed next?
- Test system: NCI-H522 lung
- experimentalDetails: NCI-60 one-dose screen, 48 h (100 = growth as untreated, 0 = no growth, -100 = all killed)
- studyConditions: 10 µM unless noted
Compounds without any hit were thinned out: in the full panel of roughly 83,000, 20% have a hit. The source made the active and inactive calls. How the source made its calls: active means growth percent below 10; inactive means the rest.

Form: item `C/C(CC(C)C)=N/NC(N)=S` ; test system NCI-H522 lung; growth: 95.2% (inactive)

Form: item CCC(C)(O)CCC(C)(O)CC (stereo not drawn) ; test system NCI-H522 lung; growth: 103% (inactive)

Form: item `Cc1ccc(N)cc1S(=O)(=O)O` ; test system NCI-H522 lung; growth: 127% (inactive)

Reference source for all entries: PubChem BioAssay (NCI)
